target: Ephrin type-A receptor 4 (Homo sapiens, UniProt P54764)
Property name: IC50 (µM)
Give bare numbers, in µM.

Ask | Recorded IC50 for CN(C)CCOc1ccc(/C=C/c2cc(-c3cc4c(=O)[nH]cnc4[nH]3)ccn2)cc1 , please?
Reply | 5.6

---

target: Vascular endothelial growth factor receptor 2 (Homo sapiens, UniProt P35968)
Property name: IC50 (nM)
Numbers only, in nM.

Ask | Look at this molecule and give its reported IC50. CN(C)CCOc1ccc(/C=C/c2cc(-c3cc4c(=O)[nH]cnc4[nH]3)ccn2)cc1
Reply | 190

---

biological target: MAP kinase-activated protein kinase 5 (Homo sapiens, UniProt Q8IW41); experiment: Inhibition of MK5
Sequence (Q8IW41 whole entry): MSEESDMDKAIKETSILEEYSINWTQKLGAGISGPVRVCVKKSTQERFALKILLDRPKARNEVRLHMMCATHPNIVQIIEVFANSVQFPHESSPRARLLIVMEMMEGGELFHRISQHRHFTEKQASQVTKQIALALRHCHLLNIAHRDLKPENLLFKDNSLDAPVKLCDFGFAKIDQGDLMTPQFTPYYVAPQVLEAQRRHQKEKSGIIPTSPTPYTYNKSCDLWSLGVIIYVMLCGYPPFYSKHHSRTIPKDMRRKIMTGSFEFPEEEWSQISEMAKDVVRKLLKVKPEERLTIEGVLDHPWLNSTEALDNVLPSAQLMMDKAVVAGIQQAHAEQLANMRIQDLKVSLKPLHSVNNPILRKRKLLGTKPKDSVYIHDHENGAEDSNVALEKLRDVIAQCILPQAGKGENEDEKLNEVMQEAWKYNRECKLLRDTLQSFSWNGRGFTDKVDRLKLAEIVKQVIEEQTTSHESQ
Property name: pIC50
Give bare numbers, as −log10 of the molar value.

>  <Smiles data>
O=c1[nH]cnc2[nH]c(-c3ccnc(/C=C/c4ccc(CN5CCOCC5)cc4)c3)cc12

>  <Value reported>
7.62

$$$$

Proceed to the following item.
Ask | I'd like to know its pIC50. The compound in question is CN(C)CCOc1ccc(/C=C/c2cc(-c3cc4c(=O)[nH]cnc4[nH]3)ccn2)cc1
Reply | 7.55

---

system: PBMC; experiment: Inhibition of LPS-stimulated TNFalpha release from human PBMC after 3 hrs
Please respond with reported log10(IC50) for every item in the list.
For clarity, the numbers are log10 values of IC50 expressed in nM.

Known log10(IC50) results, listed for orientation:
>  <Smiles data>
CCN(CC)Cc1ccc(/C=C/c2cc(-c3cc4c(=O)[nH]cnc4[nH]3)ccn2)cc1

>  <Target>
PBMC

>  <log10(IC50)>
2.58

$$$$
>  <Smiles data>
O=c1[nH]cnc2[nH]c(-c3ccnc(/C=C/c4ccccc4)c3)cc12

>  <Target>
PBMC

>  <log10(IC50)>
3.36

$$$$
>  <Smiles data>
O=c1[nH]cnc2[nH]c(-c3ccnc(/C=C/c4ccc(F)cc4)c3)cc12

>  <Target>
PBMC

>  <log10(IC50)>
2.54

$$$$
>  <Smiles data>
Nc1nc2[nH]c(-c3ccnc(/C=C/c4ccccc4)c3)cc2c(=O)[nH]1

>  <Target>
PBMC

>  <log10(IC50)>
3.18

$$$$
>  <Smiles data>
O=C(c1ccc(/C=C/c2cc(-c3cc4c(=O)[nH]cnc4[nH]3)ccn2)cc1)N1CCOCC1

>  <Target>
PBMC

>  <log10(IC50)>
2.18

$$$$
>  <Smiles data>
O=c1[nH]cnc2[nH]c(-c3ccnc(/C=C/c4ccc(CN5CCOCC5)cc4)c3)cc12

>  <Target>
PBMC

>  <log10(IC50)>
2.04

$$$$
>  <Smiles data>
Cc1nc2[nH]c(-c3ccnc(/C=C/c4ccccc4)c3)cc2c(=O)[nH]1

>  <Target>
PBMC

>  <log10(IC50)>
3.04

$$$$
>  <Smiles data>
O=C(Nc1cc(-c2cc3c(=O)[nH]cnc3[nH]2)ccn1)c1ccc(C2CCCC2)cc1

>  <Target>
PBMC

>  <log10(IC50)>
4.00

$$$$

Note: attention shifts to another entry.
Ask | So what's the measured log10(IC50) for this one? CN(C)CCOc1ccc(/C=C/c2cc(-c3cc4c(=O)[nH]cnc4[nH]3)ccn2)cc1
Reply | 1.60

---

Protein target, amino acids: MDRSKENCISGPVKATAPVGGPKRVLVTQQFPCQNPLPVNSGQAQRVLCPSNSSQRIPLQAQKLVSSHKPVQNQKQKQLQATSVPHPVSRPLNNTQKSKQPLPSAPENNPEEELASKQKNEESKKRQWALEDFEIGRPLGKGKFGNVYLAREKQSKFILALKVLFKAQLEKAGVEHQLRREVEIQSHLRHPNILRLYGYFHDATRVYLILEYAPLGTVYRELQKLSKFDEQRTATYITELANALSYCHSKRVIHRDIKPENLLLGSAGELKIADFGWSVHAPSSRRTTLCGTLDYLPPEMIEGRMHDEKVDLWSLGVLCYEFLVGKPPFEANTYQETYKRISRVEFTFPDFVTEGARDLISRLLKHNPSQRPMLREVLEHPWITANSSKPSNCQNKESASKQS
Consider the following molecules; for each one, report its pIC50.
Answers are plain numbers, as −log10 of the molar value.

>  <Smiles data>
O=c1[nH]cnc2[nH]c(-c3ccnc(/C=C/c4ccc(CN5CCOCC5)cc4)c3)cc12

>  <Value reported>
7.03

$$$$

In the following, a different molecule is considered.
Ask | Item under review: CN(C)CCOc1ccc(/C=C/c2cc(-c3cc4c(=O)[nH]cnc4[nH]3)ccn2)cc1 . Reported pIC50?
Reply | 6.55

---

molecular target: Mitogen-activated protein kinase 8 (Homo sapiens); assay: Inhibition of JNK1
Sequence (P45983 whole entry): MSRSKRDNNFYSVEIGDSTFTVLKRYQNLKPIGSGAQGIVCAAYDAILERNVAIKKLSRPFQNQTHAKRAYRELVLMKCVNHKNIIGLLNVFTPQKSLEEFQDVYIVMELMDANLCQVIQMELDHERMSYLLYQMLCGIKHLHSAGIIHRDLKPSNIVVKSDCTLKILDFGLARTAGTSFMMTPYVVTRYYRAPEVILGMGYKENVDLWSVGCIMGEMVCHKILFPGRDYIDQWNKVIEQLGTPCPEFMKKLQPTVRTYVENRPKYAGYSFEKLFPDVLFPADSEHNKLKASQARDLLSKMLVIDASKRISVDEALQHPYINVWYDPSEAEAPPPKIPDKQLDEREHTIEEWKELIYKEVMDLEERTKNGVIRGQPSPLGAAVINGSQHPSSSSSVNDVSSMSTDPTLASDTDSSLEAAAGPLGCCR
Please respond with reported pIC50 for every item in the list.
Numbers only, as −log10 of the molar value.

>  <Smiles data>
CN(C)CCOc1ccc(/C=C/c2cc(-c3cc4c(=O)[nH]cnc4[nH]3)ccn2)cc1

>  <Value reported>
6.02

$$$$

Turning now to a further record.
Ask | Recall the recorded pIC50 for O=c1[nH]cnc2[nH]c(-c3ccnc(/C=C/c4ccc(CN5CCOCC5)cc4)c3)cc12 with Mitogen-activated protein kinase 8 (Homo sapiens) and state it.
Reply | 5.40

---

target: ALK tyrosine kinase receptor (Homo sapiens, UniProt Q9UM73)
Property name: pIC50
Numbers only, as −log10 of the molar value.

Ask | Reported pIC50, compound CN(C)CCOc1ccc(/C=C/c2cc(-c3cc4c(=O)[nH]cnc4[nH]3)ccn2)cc1 : ____
Reply | 5.39

---

target: Ephrin type-B receptor 4 (Homo sapiens, UniProt P54760)
Sequence (P54760 whole entry): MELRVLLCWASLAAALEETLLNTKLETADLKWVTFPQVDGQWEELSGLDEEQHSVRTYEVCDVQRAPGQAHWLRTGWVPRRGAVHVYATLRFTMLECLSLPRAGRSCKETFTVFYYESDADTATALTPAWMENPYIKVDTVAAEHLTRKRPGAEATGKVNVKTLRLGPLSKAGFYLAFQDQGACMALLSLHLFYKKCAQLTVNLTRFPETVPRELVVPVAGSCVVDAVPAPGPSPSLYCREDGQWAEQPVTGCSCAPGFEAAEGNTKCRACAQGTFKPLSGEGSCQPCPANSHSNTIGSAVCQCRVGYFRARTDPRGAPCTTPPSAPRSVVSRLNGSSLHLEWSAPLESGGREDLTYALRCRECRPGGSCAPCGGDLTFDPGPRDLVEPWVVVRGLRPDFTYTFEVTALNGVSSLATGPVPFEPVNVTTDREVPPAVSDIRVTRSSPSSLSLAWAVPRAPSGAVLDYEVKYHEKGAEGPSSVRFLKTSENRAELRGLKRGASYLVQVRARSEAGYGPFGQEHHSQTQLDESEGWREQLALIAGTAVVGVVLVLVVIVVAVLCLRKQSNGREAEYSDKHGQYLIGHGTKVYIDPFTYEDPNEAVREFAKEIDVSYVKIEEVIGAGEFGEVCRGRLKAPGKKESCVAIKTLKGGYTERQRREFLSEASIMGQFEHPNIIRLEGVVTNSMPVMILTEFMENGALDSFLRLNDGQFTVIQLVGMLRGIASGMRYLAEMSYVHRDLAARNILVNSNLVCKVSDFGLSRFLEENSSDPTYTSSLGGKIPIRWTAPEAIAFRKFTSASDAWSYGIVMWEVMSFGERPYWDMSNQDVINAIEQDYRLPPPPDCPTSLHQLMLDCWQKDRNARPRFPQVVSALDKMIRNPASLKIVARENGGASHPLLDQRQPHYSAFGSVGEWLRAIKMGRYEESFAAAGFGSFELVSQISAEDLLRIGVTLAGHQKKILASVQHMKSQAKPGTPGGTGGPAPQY
Property name: pIC50
Give bare numbers, as −log10 of the molar value.

>  <Smiles data>
O=c1[nH]cnc2[nH]c(-c3ccnc(/C=C/c4ccc(CN5CCOCC5)cc4)c3)cc12

>  <pIC50>
5.77

$$$$

Kindly consider the entry below.
Ask | What is its pIC50 for Ephrin type-B receptor 4 (Homo sapiens, UniProt P54760)? Entry: CN(C)CCOc1ccc(/C=C/c2cc(-c3cc4c(=O)[nH]cnc4[nH]3)ccn2)cc1
Reply | 5.85

---

molecular target: Insulin-like growth factor 1 receptor (Homo sapiens, UniProt P08069)
Sequence (P08069 31-736 limits assumed): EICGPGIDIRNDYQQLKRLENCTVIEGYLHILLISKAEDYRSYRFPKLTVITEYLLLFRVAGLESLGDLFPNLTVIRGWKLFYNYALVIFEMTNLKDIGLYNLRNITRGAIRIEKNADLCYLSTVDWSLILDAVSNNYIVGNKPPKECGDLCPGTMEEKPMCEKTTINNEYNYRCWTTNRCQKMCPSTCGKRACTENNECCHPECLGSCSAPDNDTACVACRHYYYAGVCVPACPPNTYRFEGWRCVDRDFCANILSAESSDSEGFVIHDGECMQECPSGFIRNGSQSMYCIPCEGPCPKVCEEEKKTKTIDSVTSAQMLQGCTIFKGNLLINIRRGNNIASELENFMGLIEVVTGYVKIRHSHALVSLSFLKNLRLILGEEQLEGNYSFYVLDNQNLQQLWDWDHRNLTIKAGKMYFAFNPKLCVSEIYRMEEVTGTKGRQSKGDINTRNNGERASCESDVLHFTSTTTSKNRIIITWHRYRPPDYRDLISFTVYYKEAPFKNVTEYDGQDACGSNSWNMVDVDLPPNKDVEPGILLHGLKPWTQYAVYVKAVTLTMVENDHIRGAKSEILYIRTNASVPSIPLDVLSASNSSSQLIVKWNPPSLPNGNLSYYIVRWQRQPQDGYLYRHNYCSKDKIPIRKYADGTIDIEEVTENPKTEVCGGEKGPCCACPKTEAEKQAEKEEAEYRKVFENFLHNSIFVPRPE
Sequence (P08069 741-1367 limits assumed): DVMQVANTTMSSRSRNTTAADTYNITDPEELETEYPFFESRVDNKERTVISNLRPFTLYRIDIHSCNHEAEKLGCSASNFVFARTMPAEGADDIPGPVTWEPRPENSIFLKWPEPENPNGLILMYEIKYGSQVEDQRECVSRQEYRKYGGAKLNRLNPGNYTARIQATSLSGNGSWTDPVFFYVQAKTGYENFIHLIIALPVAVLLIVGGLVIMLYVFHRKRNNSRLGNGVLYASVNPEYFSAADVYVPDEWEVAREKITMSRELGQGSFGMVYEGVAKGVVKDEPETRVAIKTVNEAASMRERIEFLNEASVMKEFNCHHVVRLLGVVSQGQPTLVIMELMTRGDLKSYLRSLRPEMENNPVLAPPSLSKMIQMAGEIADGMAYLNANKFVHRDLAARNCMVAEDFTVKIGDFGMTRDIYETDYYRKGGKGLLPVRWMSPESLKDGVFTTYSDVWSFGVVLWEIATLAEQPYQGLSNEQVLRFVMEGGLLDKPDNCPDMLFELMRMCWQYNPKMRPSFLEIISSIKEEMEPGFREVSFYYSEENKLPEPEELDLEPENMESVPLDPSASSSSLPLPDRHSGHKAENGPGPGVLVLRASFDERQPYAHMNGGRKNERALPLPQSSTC
Property name: pIC50
Give bare numbers, as −log10 of the molar value.

Ask | API: value(readout=pIC50, system=Insulin-like growth factor 1 receptor (Homo sapiens, UniProt P08069)) for record CN(C)CCOc1ccc(/C=C/c2cc(-c3cc4c(=O)[nH]cnc4[nH]3)ccn2)cc1
Reply | 5.19

---

molecular target: Receptor tyrosine-protein kinase erbB-2 (Homo sapiens, UniProt P04626)
Property name: IC50 (µM)
Give bare numbers, in µM.

Ask | Need IC50, item CN(C)CCOc1ccc(/C=C/c2cc(-c3cc4c(=O)[nH]cnc4[nH]3)ccn2)cc1
Reply | 9.5

---

molecular target: RAC-alpha serine/threonine-protein kinase (Homo sapiens)
Sequence (P31749 whole entry): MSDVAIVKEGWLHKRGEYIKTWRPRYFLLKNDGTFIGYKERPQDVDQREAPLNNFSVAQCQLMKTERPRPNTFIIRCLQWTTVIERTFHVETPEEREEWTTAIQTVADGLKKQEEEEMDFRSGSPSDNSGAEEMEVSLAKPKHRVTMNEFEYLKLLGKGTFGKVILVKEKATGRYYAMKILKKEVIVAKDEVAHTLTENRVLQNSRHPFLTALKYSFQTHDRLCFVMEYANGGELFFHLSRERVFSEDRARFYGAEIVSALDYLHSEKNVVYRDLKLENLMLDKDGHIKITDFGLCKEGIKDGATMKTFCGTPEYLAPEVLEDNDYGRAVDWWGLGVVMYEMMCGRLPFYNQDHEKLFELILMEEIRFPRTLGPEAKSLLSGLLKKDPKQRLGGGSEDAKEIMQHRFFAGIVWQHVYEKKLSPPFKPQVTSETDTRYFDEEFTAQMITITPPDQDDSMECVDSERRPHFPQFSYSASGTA
pIC50: −log10 of the molar value.
Property name: pIC50

Ask | # returns recorded pIC50 (system: RAC-alpha serine/threonine-protein kinase (Homo sapiens)) for CN(C)CCOc1ccc(/C=C/c2cc(-c3cc4c(=O)[nH]cnc4[nH]3)ccn2)cc1
Reply | < 5.00

---

Consider the following compounds; for each one, report its solubility thermodynamic.
experiment: Thermodynamic solubility at pH 6.8; format: physicochemical; details: buffer
Numbers only, in µg/mL.

Take each entry in turn and give its solubility thermodynamic.
1. O=c1[nH]cnc2[nH]c(-c3ccnc(/C=C/c4ccc(F)cc4)c3)cc12
2. O=C(c1ccc(/C=C/c2cc(-c3cc4c(=O)[nH]cnc4[nH]3)ccn2)cc1)N1CCOCC1
3. CN(C)CCOc1ccc(/C=C/c2cc(-c3cc4c(=O)[nH]cnc4[nH]3)ccn2)cc1
4. O=c1[nH]cnc2[nH]c(-c3ccnc(/C=C/c4ccc(CN5CCOCC5)cc4)c3)cc12

Reply |
1: 3; 2: 9; 3: 410; 4: 41

---

Each entry below carries its measured pIC50, system: Glycogen synthase kinase-3 beta (Homo sapiens, UniProt P49841).
Sequence (P49841 whole entry): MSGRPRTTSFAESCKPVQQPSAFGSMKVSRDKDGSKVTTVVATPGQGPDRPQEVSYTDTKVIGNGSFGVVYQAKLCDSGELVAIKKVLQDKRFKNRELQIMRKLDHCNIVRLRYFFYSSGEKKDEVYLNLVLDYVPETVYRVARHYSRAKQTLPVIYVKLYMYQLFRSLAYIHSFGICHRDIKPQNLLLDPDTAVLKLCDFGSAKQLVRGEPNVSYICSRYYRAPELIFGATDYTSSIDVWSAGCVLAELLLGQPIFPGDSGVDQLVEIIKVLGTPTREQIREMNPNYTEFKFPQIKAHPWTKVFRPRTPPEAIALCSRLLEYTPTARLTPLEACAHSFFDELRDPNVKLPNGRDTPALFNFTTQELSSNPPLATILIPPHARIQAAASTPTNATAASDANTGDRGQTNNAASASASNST
Give bare numbers, as −log10 of the molar value.

>  <Smiles data>
CN(C)CCOc1ccc(/C=C/c2cc(-c3cc4c(=O)[nH]cnc4[nH]3)ccn2)cc1

>  <Value reported>
6.28

$$$$

Please turn your attention to the following entry.
Ask | What value of pIC50 has been recorded for this entry: O=c1[nH]cnc2[nH]c(-c3ccnc(/C=C/c4ccc(CN5CCOCC5)cc4)c3)cc12
Reply | 6.52

---

biological target: Fibroblast growth factor receptor 4 (Homo sapiens, UniProt P22455)
Sequence (P22455 whole entry): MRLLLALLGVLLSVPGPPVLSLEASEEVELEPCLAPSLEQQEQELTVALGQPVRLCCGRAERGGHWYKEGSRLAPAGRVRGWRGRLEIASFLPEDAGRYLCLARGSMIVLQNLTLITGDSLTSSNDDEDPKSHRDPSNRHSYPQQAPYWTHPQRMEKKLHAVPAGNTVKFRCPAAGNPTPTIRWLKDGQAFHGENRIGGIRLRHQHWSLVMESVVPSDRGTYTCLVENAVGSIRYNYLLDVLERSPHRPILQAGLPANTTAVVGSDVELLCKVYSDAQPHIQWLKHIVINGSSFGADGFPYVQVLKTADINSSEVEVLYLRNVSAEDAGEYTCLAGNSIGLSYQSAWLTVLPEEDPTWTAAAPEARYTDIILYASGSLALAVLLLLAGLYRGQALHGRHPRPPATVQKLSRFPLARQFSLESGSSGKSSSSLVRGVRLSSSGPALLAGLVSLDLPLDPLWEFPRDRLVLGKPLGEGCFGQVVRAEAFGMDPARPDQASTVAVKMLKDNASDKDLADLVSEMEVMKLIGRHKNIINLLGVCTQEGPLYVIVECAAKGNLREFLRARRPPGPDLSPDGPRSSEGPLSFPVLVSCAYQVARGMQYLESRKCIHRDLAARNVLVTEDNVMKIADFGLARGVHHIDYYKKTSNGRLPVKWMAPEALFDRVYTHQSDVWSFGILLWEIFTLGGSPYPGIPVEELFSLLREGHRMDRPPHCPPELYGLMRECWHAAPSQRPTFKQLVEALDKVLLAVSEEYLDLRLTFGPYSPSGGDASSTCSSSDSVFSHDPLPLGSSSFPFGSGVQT
Property name: pIC50
Numbers only, as −log10 of the molar value.

Ask | Reported pIC50 for CN(C)CCOc1ccc(/C=C/c2cc(-c3cc4c(=O)[nH]cnc4[nH]3)ccn2)cc1 : what is it?
Reply | 5.17

---

molecular target: Cyclin-dependent kinase 2 (Homo sapiens)
Property name: IC50 (µM)
Give bare numbers, in µM.

Ask | Would you mind telling me what IC50 value was observed for CN(C)CCOc1ccc(/C=C/c2cc(-c3cc4c(=O)[nH]cnc4[nH]3)ccn2)cc1 ?
Reply | 8.2
